# assayedSystem: T1, human calcitonin receptor (human, UniProt P30988 25-474)
# T1 sequence (looked up): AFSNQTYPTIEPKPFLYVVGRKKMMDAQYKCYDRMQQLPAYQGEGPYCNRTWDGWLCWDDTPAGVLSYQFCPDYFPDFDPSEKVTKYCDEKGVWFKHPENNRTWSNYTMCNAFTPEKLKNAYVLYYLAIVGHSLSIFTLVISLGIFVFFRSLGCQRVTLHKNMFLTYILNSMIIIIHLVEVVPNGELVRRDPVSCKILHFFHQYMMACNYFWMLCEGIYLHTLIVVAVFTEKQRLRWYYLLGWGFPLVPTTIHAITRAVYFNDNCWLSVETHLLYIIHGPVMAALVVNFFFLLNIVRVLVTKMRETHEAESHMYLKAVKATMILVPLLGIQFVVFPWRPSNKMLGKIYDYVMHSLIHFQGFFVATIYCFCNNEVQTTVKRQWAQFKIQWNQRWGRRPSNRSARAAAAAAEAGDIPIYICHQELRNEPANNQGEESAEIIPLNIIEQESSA
# testDetails: cell-based or functional assay
Numbered stars: 1 amine (or outer) side, 2 acyl side, 3 side chain; on linkers, the order of the positions; unused ones are H or OH. Bridge positions count the residues as written; N and C are the ends. * marks the point of attachment. C20 diacid = O=C(O)CCCCCCCCCCCCCCCCCCC(=O)*; γGlu = O=C(O)[C@H](CCC(=O)[*:2])N[*:1]
Form field: hCTR funct. EC50 (one value per entry).
Answer format: numeric, nM implied, no suffix.

Lookup: Please give measured hCTR funct. EC50 of the following entry: {C20 diacid-γGlu}-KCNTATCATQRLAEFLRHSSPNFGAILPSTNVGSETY-NH2 (disulfide 2-7, also called compound 33)
Found: 0.528

Lookup: Using known records, supply hCTR funct. EC50 for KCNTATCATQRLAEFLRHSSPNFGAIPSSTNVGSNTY (C20 diacid-gGlu on the alpha amino group of the N-terminal residue; disulfide bridge Cys2-Cys7; C-terminal amide, also called compound 9) [N^α1-[(4S)-4-carboxy-4-(19-carboxynonadecanoylamino)butanoyl]-[Glu14,Arg17,Pro21,Pro27]-h-amylin]
Found: 1.29

Lookup: Note hCTR funct. EC50 for the binder shown: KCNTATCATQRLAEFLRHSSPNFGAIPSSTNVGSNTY (C20 diacid-gGlu-2xOEG on the alpha amino group of the N-terminal residue; disulfide bridge Cys2-Cys7; C-terminal amide, also called compound 19)
Found: 5.32
